system: SF-295 CNS; assay: NCI tumour cell line growth inhibition, 48 h
Here the recorded TGI is given for each entry.
PROPERTY: TGI

- COMPOUND: "CC(C)(C)c1ccc(O)c(C[N+](C)(C)C)c1"
  VALUE_OBSERVED: "> 100 µM"
- COMPOUND: "CC(=O)Nc1cc(C(=O)Nc2cc(C(=O)Nc3cc(C(=O)Nc4cc(C(=O)Nc5cc(C(=O)NCCC(=O)NCCCN(C)C)n(C)c5)n(C)c4)n(C)c3)n(C)c2)n(C)c1"
  VALUE_OBSERVED: "> 100 µM"
- COMPOUND: "COc1ccc2c(CCC(c3ccccc3)c3ccccc3)c3[n+](cc2c1OC)CCc1cc2c(cc1-3)OCO2"
  VALUE_OBSERVED: "3.99 µM"
- COMPOUND: "O=c1[nH]c(=O)n(C2OC(CO)C(N(O)Cc3ccc(F)cc3)C2O)cc1Br (stereo not drawn)"
  VALUE_OBSERVED: "> 100 µM"
- COMPOUND: "CCN1CCN(c2cc(C)nc(N(CCCNc3ccnc4cc(Cl)ccc34)Cc3cccs3)n2)CC1"
  VALUE_OBSERVED: "3.73 µM"
- COMPOUND: "C/C(=N\\N(C)C)C(CN1CCCCC1)C(c1ccccc1)c1c(O)c2ccccc2oc1=O (stereo not drawn)"
  VALUE_OBSERVED: "> 100 µM"
- COMPOUND: "COC(=O)C1=C(C)NC(C)=C(C(=O)OC)C1c1ccc(NO)cc1"
  VALUE_OBSERVED: "33.1 µM"
- COMPOUND: "COc1ccc2c(c1)CC1Cc3cc(OC)c(OC)cc3CN1CC2 (stereo not drawn)"
  VALUE_OBSERVED: "> 100 µM"
- COMPOUND: "COc1cc(-n2cncc2-c2ccc3ccccc3c2)cc(OC)c1OC"
  VALUE_OBSERVED: "> 100 µM"
- COMPOUND: "C=C(C(=O)OC)[C@H]1CC/C(C)=C/CC[C@@](C)(O)C=CC[C@@]2(C)O[C@@H]2C1"
  VALUE_OBSERVED: "> 100 µM"
- COMPOUND: "O=C([O-])c1ccc2c(c1)-c1nc-2nc2[n-]c(nc3nc(nc4[n-]c(n1)c1ccc(C(=O)[O-])cc41)-c1ccc(C(=O)[O-])cc1-3)c1ccc(C(=O)[O-])cc21.[Gd+3].[K+]"
  VALUE_OBSERVED: "> 100 µM"
- COMPOUND: "CN1C(NN)=NS(=O)(=O)c2ccccc21"
  VALUE_OBSERVED: "> 100 µM"
- COMPOUND: "C/C(CC(=O)Nc1ccccc1[N+](=O)[O-])=N\\NC(N)=O"
  VALUE_OBSERVED: "> 100 µM"
- COMPOUND: "CC(C)=CCC[C@@H](C)C1=C(O)C(c2c(I)c(=O)n(C)c(=O)n2C)=C(C)C(=O)C1=O"
  VALUE_OBSERVED: "> 100 µM"
- COMPOUND: "CCOC(=O)[C@@H]1C2C(=C[C@H]3[C@H]1C(=O)N1CCCC[C@H]31)CCCN2C(=O)OCc1ccccc1 (stereo partly drawn)"
  VALUE_OBSERVED: "> 100 µM"
- COMPOUND: "CN(CCNC(=O)c1[nH]nc2c1Cc1ccccc1-2)CCNC(=O)c1[nH]nc2c1Cc1ccccc1-2"
  VALUE_OBSERVED: "31 µM"
- COMPOUND: "CC1(C)CC(=O)C(Cc2ccccc2)(Cc2ccccc2)C(=O)C1"
  VALUE_OBSERVED: "> 100 µM"
- COMPOUND: "CCOc1cc(NC(C)=O)ccc1C(=O)NN1C(=O)/C(=C/c2ccco2)N=C1c1ccccc1"
  VALUE_OBSERVED: "> 100 µM"
